# assay-remarks: refractive index (Na D-line) (dimensionless)
# condition-context: 298.15 K; 101.33 kPa; Liquid; Standard Abbe refractometry
Here, each record is paired with measured refractive index data.
Write the number on its own, no unit after it.

Reference set, count: 4
molecule: CCCCCCn1cc[n+](C)c1.F[P-](F)(F)(F)(F)F [1-hexyl-3-methylimidazolium hexafluorophosphate]
experimental-endpoint: refractive index
obs-value: 1.41787
--
molecule: CCCCCCCC[n+]1ccn(C)c1.F[P-](F)(F)(F)(F)F [1-octyl-3-methylimidazolium hexafluorophosphate]
experimental-endpoint: refractive index
obs-value: 1.42302
--
molecule: CCCCCC [hexane]
experimental-endpoint: refractive index
obs-value: 1.37217
--
molecule: CCO [ethanol]
experimental-endpoint: refractive index
obs-value: 1.35929

Note: attention shifts to another entry.
Given CCCCCCC [heptane] , state its recorded refractive index.
1.38517
